tested on: HT-29 Cell line; experiment: Cell growth inhibition of cancer cell lines (SRB assay), HT-29; assay type: cell-based; conditions: 2 μM compound
Structures can show the parent of a compound that is named as a salt.
Give measured Temozolomide PF50 for each item. Keep answers brief.

// sample O=c1[nH]c2ccc(OCCCCN3CCCCC3)cc2c2c1CCCN2 [Example 29, dihydrochloride] , its Temozolomide PF50 was >1.2

// recorded Temozolomide PF50 for CNCc1ccc2c3c(c(=O)[nH]c2c1)CCCN3 [Example 52, dihydrochloride] : >1.3

// recorded Temozolomide PF50 for COc1cc(CN2CCOCC2)cc2[nH]c(=O)c3c(c12)NCCC3 [Example 74, dihydrochloride] : >2.8

The compound identified as CCN(CC)Cc1ccc2c3c(c(=O)[nH]c2c1)CCCN3 [Example 42, dihydrochloride] registered its Temozolomide PF50 at >1.4
